B1: EEHEE_rd4_0469 (parent)
chain: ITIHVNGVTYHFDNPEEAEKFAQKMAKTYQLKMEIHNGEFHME

Variants of: B1
Assay: folding stability dG (cDNA display proteolysis); higher = more stable
Details: PBS, room temperature
Record 1 whenever folding stability dG is at 0.8 kcal/mol or higher; record 0 when lower.

Solved cases below.
F40V : 1
K27G : 0
A26N : 0

Exercise: # bool: folding stability dG of `K20P` >= 0.8 kcal/mol
Key: 0

Exercise: Would you say `D13W` shows folding stability dG at minimum 0.8 kcal/mol?
Key: 1

Exercise: Can `I35N` be said to have folding stability dG at or above 0.8 kcal/mol?
Key: 0

Exercise: Is the recorded value of folding stability dG equal to or greater than 0.8 kcal/mol for this variant? `K27P`
Key: 1

Exercise: Would you say `V5P` shows folding stability dG at minimum 0.8 kcal/mol?
Key: 0

Exercise: Test whether the variant `H4R` records folding stability dG of 0.8 kcal/mol or higher.
Key: 1

Exercise: Hello, I need to know if `K24T` has measured folding stability dG not below 0.8 kcal/mol. Thanks!
Key: 1

Exercise: # check: folding stability dG of `F12T` is greater than or equal to 0.8 kcal/mol
Key: 0

Exercise: Hi team, for `E17Q` , is the recorded folding stability dG at or above 0.8 kcal/mol?
Key: 1

Exercise: Quick check, folding stability dG >= 0.8 kcal/mol? `Y10V`
Key: 0

Exercise: Given `G38S` , state whether its folding stability dG is at least 0.8 kcal/mol.
Key: 0

Exercise: Evaluate `I35V` : folding stability dG at minimum 0.8 kcal/mol?
Key: 1

Exercise: Tell me whether folding stability dG is at least 0.8 kcal/mol here: `Q23A`
Key: 1

Exercise: Hi team, for `K27E` , is the recorded folding stability dG at or above 0.8 kcal/mol?
Key: 1
